Kindly state normalized growth for each of the entries shown.
test: chemical genetic growth profiling, strain panel (AID 1159580);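 further: tested at 20 µM; growth read once vehicle control cultures reached saturation at 30 °C; 1 = growth at the plate median or of vehicle wells; lower values mean less growth of the strain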; conditions: S. cerevisiae deletion strains, growth OD, locus YNL224C, strain SQS1, stronger effect = lower value
Among all 5,500 compounds or so, about 2,000 (36%) were called active. Roughly 18% stayed inconclusive and do not appear here. Some of the results follow.
I'd appreciate a reply containing only the number, no unit.

Enquiry: Could you please provide reported normalized growth for Clc1cccc(N2CCNCC2)c1 ? Thanks!
Return: 0.984

Enquiry: Could you please provide reported normalized growth for O=C(O)/C=C/c1ccc(O)c(O)c1 ? Thanks!
Return: 0.997

Enquiry: Could you please provide reported normalized growth for C=CC1(C)CC(=O)C2(O)C(C)(O1)C(OC(C)=O)C(O)C1C(C)(C)CCC(O)C12C (stereo not drawn) ? Thanks!
Return: 0.99

Enquiry: Could you please provide reported normalized growth for O=C1NCC2(CCN(CCc3ccccc3)CC2)O1 ? Thanks!
Return: 0.995

Enquiry: Could you please provide reported normalized growth for CCCCCCCCCCCCCCCCCCNC(=O)OCC(COP(=O)([O-])OCC[n+]1ccsc1)OC (stereo not drawn) ? Thanks!
Return: 1.03

Enquiry: Could you please provide reported normalized growth for CCn1cc(C(=O)O)c(=O)c2cc(F)c(N3CCNC(C)C3)c(F)c21 (stereo not drawn) ? Thanks!
Return: 0.994

Enquiry: Could you please provide reported normalized growth for CN(C)CCN(Cc1cccs1)c1ccccn1 ? Thanks!
Return: 1.01

Enquiry: Could you please provide reported normalized growth for Fc1ccc(C(OCCCc2cnc[nH]2)c2ccc(F)cc2)cc1 ? Thanks!
Return: 1.02

Enquiry: Could you please provide reported normalized growth for CCCCCCCC/C=C\CCCCCCCC(=O)NCCc1ccc(O)c(O)c1 ? Thanks!
Return: 1.02

Enquiry: Could you please provide reported normalized growth for CCCCCCCCCCCCCCCCCC(=O)NCC(COP(=O)([O-])OCC[N+](C)(C)C)OCC (stereo not drawn) ? Thanks!
Return: 0.0836

Enquiry: Could you please provide reported normalized growth for CC1COc2c(N3CCN(C)CC3)c(F)cc3c(=O)c(C(=O)O)cn1c23 (stereo not drawn) ? Thanks!
Return: 1.01

Enquiry: Could you please provide reported normalized growth for CNCCC(Oc1ccc(C(F)(F)F)cc1)c1ccccc1 (stereo not drawn) ? Thanks!
Return: 1.04

Enquiry: Could you please provide reported normalized growth for CCCCNC(=O)NS(=O)(=O)c1ccc(C)cc1 ? Thanks!
Return: 0.995

Enquiry: Could you please provide reported normalized growth for CC(=O)c1c(O)c(C)c(O)c(Cc2c(O)c3c(c(C(=O)/C=C/c4ccccc4)c2O)OC(C)(C)C=C3)c1O ? Thanks!
Return: 1.01

Enquiry: Could you please provide reported normalized growth for CNCC[C@H](Oc1ccc(C(F)(F)F)cc1)c1ccccc1 ? Thanks!
Return: 1

Enquiry: Could you please provide reported normalized growth for CCCCCCCCCCCCCCCC(=O)NCC(COP(=O)([O-])OCC[N+](C)(C)C)OCC (stereo not drawn) ? Thanks!
Return: 0.151

Enquiry: Could you please provide reported normalized growth for O=C(/C=C/c1ccc(O)c(O)c1)OCCc1ccccc1 ? Thanks!
Return: 0.937

Enquiry: Could you please provide reported normalized growth for c1ccc(CCCN2CCN(CCOC(c3ccccc3)c3ccccc3)CC2)cc1 ? Thanks!
Return: 1.02

Enquiry: Could you please provide reported normalized growth for CC#C[C@]1(O)CC[C@H]2[C@@H]3CCC4=CC(=O)CCC4=C3[C@@H](c3ccc(N(C)C)cc3)C[C@@]21C ? Thanks!
Return: 0.979

Enquiry: Could you please provide reported normalized growth for COc1ccc(CN(CCN(C)C)c2ccccn2)cc1 ? Thanks!
Return: 0.988

Enquiry: Could you please provide reported normalized growth for Fc1ccc(C(OCCN2CCN(CCCc3ccccc3)CC2)c2ccc(F)cc2)cc1 ? Thanks!
Return: 1.05

Enquiry: Could you please provide reported normalized growth for CCCCCCCCC(=O)NCc1ccc(O)c(OC)c1 ? Thanks!
Return: 0.984

Enquiry: Could you please provide reported normalized growth for O=C1NC(=O)C(c2ccccc2)(c2ccccc2)N1 ? Thanks!
Return: 0.975
